# experimentalParameters: 279 patients, tamoxifen 20 mg daily
quantityName: Not detected: number and (%) of patients with no detectable plasma concentration

- CC/C(=C(/c1ccc(O)cc1)c1ccc(OCCNC)cc1)c1ccccc1 [(E)-Endoxifen, (E)-4-hydroxy-N-desmethyl-tamoxifen]: 249 (89.2) N = 279 (%)
- CC(O)/C(=C(\c1ccccc1)c1ccc(OCCN(C)C)cc1)c1ccccc1 (stereo not drawn) [(E)-α-OH-Tam, (E)-α-hydroxy-tamoxifen]: 8 (2.9) N = 279 (%)
- CCC(=C(c1ccccc1)c1ccc(OCC[N+](C)(C)C2OC(C(=O)[O-])C(O)C(O)C2O)cc1)c1ccccc1 (mixture of isomers) [(E/Z)-Tam-N-gluc, Tamoxifen-N-β-D-glucuronide]: 1 (0.4) N = 279 (%)
- CCC(=C(c1ccc(OCCNC)cc1)c1ccc(O[C@@H]2O[C@H](C(=O)O)[C@@H](O)[C@H](O)[C@H]2O)cc1)c1ccccc1 (mixture of isomers) [(E/Z)-4-OH-NDM-Tam-gluc]: 0 (0) N = 279 (%)
- CC/C(=C(\c1ccccc1)c1ccc(OCC[N+](C)(C)[O-])cc1)c1ccccc1 [Tam-N-oxide, Tamoxifen-N-oxide]: 0 (0) N = 279 (%)
- CC/C(=C(\c1ccccc1)c1ccc(OCCNC)cc1)c1ccccc1 [NDM-Tam, N-desmethyl-tamoxifen]: 0 (0) N = 279 (%)
